Where do the numbers come from? From patent US20160115186A1.

Test: in vitro
Type: cell-based
Conditions: human; Hep G 2.2.15 cells, MTT, day 3 post-dosing
Protocol: Hep G 2.2.15 cells were inoculated in a 96-well plate (with cell number being 5.5×10^4) to continually cultivate for 3 days, new culture solutions containing different concentrations of drugs were added, and 3 wells were provided in parallel; at day 3 post-dosing, MTT was added until 7.5 mg/ml, and continued to cultivate for 2 hours, the supernate was discarded, isopropanol containing 10% […] was added, 120 μl/well, and 0.4 μl/well was further added.
experimentalReadout: CC50 (µM)

1) COC(=O)[C@@H](C)NP(=O)(OCCOCn1cnc2c(=O)[nH]c(N)nc21)Oc1ccccc1 (stereo partly drawn) [i-3, reference compound] = 177
2) COC(=O)[C@H](C)N[P@](=O)(OC[C@H]1O[C@@H](n2ccc(N)nc2=O)CS1)Oc1ccc2c(c1)OCO2 [Compound I37] = 193
3) C=C1[C@H](COP(=O)(N[C@@H](C)C(=O)OC(C)C)Oc2cccc3c2OCO3)[C@@H](O)C[C@@H]1n1cnc2c(=O)[nH]c(N)nc21 (stereo partly drawn) [Compound I39] = 182
4) CC(C)OC(=O)[C@H](C)N[P@](=O)(OC[C@H]1O[C@@H](n2ccc(=O)[nH]c2=O)[C@](C)(F)[C@@H]1O)Oc1ccccc1 [PSI-7977, reference compound] = 178

* * *

Tested on: liver damage in mice caused by D-aminogalactose
Assay type: in vivo, Kunmin mice
Settings: serum, D-aminogalactose 750 mg/kg model, 0.2 mmol oral twice, 24 hours after second administration
Listing of recorded AST by entry.
experimentalReadout: AST (U/L)

1) C=C1[C@H](CO[P@](=O)(N[C@@H](C)C(=O)OC(C)C)Oc2ccc3c(c2)OCO3)[C@@H](O)C[C@@H]1n1cnc2c(=O)[nH]c(N)nc21 = 275
2) COc1nc(N)nc2c1ncn2[C@@H]1O[C@H](CO[P@](=O)(N[C@@H](C)C(=O)OC(C)C)Oc2ccc3c(c2)OCO3)[C@@H](O)[C@@]1(C)F = 282
3) CC(C)OC(=O)[C@H](C)N[P@](=O)(OC[C@H]1O[C@@H](n2ccc(N)nc2=O)CS1)Oc1ccc2c(c1)OCO2 = 113
4) COc1nc(N)nc2c1ncn2COCCOP(=O)(N[C@H](C)C(=O)OC(C)C)Oc1ccc2c(c1)OCO2 (stereo partly shown) = 510
5) Nc1ncnc2c1ncn2CCOCP(=O)(Oc1cccc2c1OCO2)Oc1cccc2c1OCO2 = 796
6) C=C1[C@H](CO[P@@](=O)(N[C@@H](C)C(=O)OC(C)C)Oc2ccccc2)[C@@H](O)C[C@@H]1n1cnc2c(=O)[nH]c(N)nc21 [i-5, reference compound] = 1646
7) CC(C)OC(=O)[C@H](C)N[P@](=O)(CO[C@H](C)Cn1cnc2c(N)ncnc21)Oc1ccccc1.O=C(O)/C=C/C(=O)O [GS-7340, reference compound] = 1320
8) C=C1[C@H](CO[P@@](=O)(N[C@@H](C)C(=O)OC(C)C)Oc2ccc3c(c2)OCO3)[C@@H](O)C[C@@H]1n1cnc2c(=O)[nH]c(N)nc21 = 493
9) COc1nc(N)nc2c1ncn2[C@@H]1O[C@H](CO[P@@](=O)(N[C@@H](C)C(=O)OC(C)C)Oc2ccccc2)[C@@H](O)[C@@]1(C)F [PSI-353661, reference compound] = 1027
10) Nc1ncnc2c1ncn2CCOCP(=O)(Oc1ccc2c(c1)OCO2)Oc1ccc2c(c1)OCO2 = 560
11) CC(C)OC(=O)[C@H](C)N[P@](=O)(CO[C@H](C)Cn1cnc2c(N)ncnc21)Oc1ccc2c(c1)OCO2 = 268
12) COC(=O)[C@@H](C)NP(=O)(OCCOCn1cnc2c(=O)[nH]c(N)nc21)Oc1ccccc1 (stereo partly shown) [i-3, reference compound] = 1419
13) CC(C)OC(=O)[C@H](C)N[P@](=O)(OC[C@H]1O[C@@H](n2ccc(=O)[nH]c2=O)[C@](C)(F)[C@@H]1O)Oc1ccc2c(c1)OCO2 = 751
14) Nc1ncnc2c1ncn2CCOCP(=O)(Oc1ccccc1)Oc1ccccc1 [i-1, reference compound] = 1456
15) CC(C)OC(=O)[C@H](C)N[P@@](=O)(CO[C@H](C)Cn1cnc2c(N)ncnc21)Oc1ccc2c(c1)OCO2 = 169
16) CC(C)OC(=O)[C@H](C)N[P@@](=O)(OC[C@H]1O[C@@H](n2ccc(=O)[nH]c2=O)[C@](C)(F)[C@@H]1O)Oc1ccc2c(c1)OCO2 = 253
17) COc1ccc(Sc2nc(N)nc3c2ncn3CCOCP(=O)(N[C@H](C)C(=O)OC(C)C)Oc2ccc3c(c2)OCO3)cc1 (stereo partly shown) = 586
18) COC(=O)C(C)NP(=O)(OCC1OC(n2ccc(N)nc2=O)CS1)Oc1ccccc1 (stereo not shown) [Cf1109, reference compound] = 140
19) Nc1ncnc2c1ncn2CCOCP(=O)(Oc1cccc2ccccc12)Oc1cccc2ccccc12 [i-2, reference compound] = 1812
20) COc1nc(N)nc2c1ncn2[C@@H]1O[C@H](CO[P@@](=O)(N[C@@H](C)C(=O)OC(C)C)Oc2ccc3c(c2)OCO3)[C@@H](O)[C@@]1(C)F = 194
21) CC(C)OC(=O)[C@H](C)N[P@](=O)(OC[C@H]1O[C@@H](n2ccc(=O)[nH]c2=O)[C@](C)(F)[C@@H]1O)Oc1ccccc1 [PSI-7977, reference compound] = 1727
22) CC(C)OC(=O)C(C)NP(=O)(OCCOCn1cnc2c(=O)[nH]c(N)nc21)Oc1ccc2c(c1)OCO2 (stereo not shown) = 522

* * *

Experiment: in vitro
Format: cell-based
Settings: human; Hep G 2.2.15 cells, MTT, day 3 post-dosing
Listing of recorded CC50 at 3 days by entry.
experimentalReadout: CC50 at 3 days

1. Nc1ncnc2c1ncn2CCOCP(=O)(Oc1ccc2c(c1)OCCO2)Oc1ccc2c(c1)OCCO2 [Compound I4] = > 200 µM
2. Cc1cc(OCP(=O)(Oc2ccc3c(c2)OCO3)Oc2ccc3c(c2)OCO3)cc(C)c1Cc1ccc(O)c(C(C)C)c1 [Compound I9] = > 200 µM
3. CC(C)OC(=O)[C@@H](C)NP(=O)(CO[C@H](C)Cn1cnc2c(N)ncnc21)Oc1cccc2c1OCO2 (stereo partly drawn) [Compound I24] = > 200 µM
4. Nc1ccn(C2CSC(COP(=O)(Oc3ccc4c(c3)OCO4)Oc3ccc4c(c3)OCO4)O2)c(=O)n1 (stereo not drawn) [Compound I14] = > 200 µM
5. Nc1ncnc2c1ncn2CCOCP(=O)(Oc1cccc2c1OCCO2)Oc1cccc2c1OCCO2 [Compound I3] = > 200 µM
6. C=C1[C@H](COP(=O)(Oc2ccc3c(c2)OCO3)Oc2ccc3c(c2)OCO3)[C@@H](O)C[C@@H]1n1cnc2c(=O)[nH]c(N)nc21 [Compound I15] = > 200 µM
7. Nc1nc2c(ncn2COCCOP(=O)(Oc2ccc3c(c2)OCO3)Oc2ccc3c(c2)OCO3)c(=O)[nH]1 [Compound I12] = > 200 µM
8. CCOC(=O)[C@@H](C)NP(=O)(CO[C@H](C)Cn1cnc2c(N)ncnc21)Oc1ccc2c(c1)OCO2 (stereo partly drawn) [Compound I20] = 179 µM
9. C=C1[C@H](COP(=O)(Oc2ccc3c(c2)OCO3)Oc2ccc3c(c2)OCO3)[C@@H](O)C[C@@H]1n1cnc2c(OC)nc(N)nc21 [Compound I16] = > 200 µM
10. COC(=O)[C@@H](C)NP(=O)(CO[C@H](C)Cn1cnc2c(N)ncnc21)Oc1ccc2c(c1)OCO2 (stereo partly drawn) [Compound I19] = 146 µM
11. C[C@H](Cn1cnc2c(N)ncnc21)OCP(=O)(N[C@H](C)C(=O)OC1CCCCC1)Oc1ccc2c(c1)OCO2 (stereo partly drawn) [Compound I25] = > 200 µM
12. C[C@H](Cn1cnc2c(N)ncnc21)OCP(=O)(Oc1cccc2c1OCO2)Oc1cccc2c1OCO2 [Compound I5] = > 200 µM
13. CC(C)OC(=O)[C@@H](C)NP(=O)(CO[C@H](C)Cn1cnc2c(N)ncnc21)Oc1ccc2c(c1)OCO2 (stereo partly drawn) [Compound I21] = > 200 µM
14. CC(C)Cc1sc(N)nc1-c1ccc(P(=O)(Oc2ccc3c(c2)OCO3)Oc2ccc3c(c2)OCO3)o1 [Compound I10] = > 200 µM
15. Nc1ncnc2c1ncn2CCOCP(=O)(Oc1cccc2ccccc12)Oc1cccc2ccccc12 [i-2, reference compound] = 152 µM
16. CC(C)C[C@@H](NP(=O)(CO[C@H](C)Cn1cnc2c(N)ncnc21)Oc1ccc2c(c1)OCO2)C(=O)OC(C)C (stereo partly drawn) [Compound I23] = > 200 µM
17. C[C@@]1(F)[C@H](O)[C@@H](COP(=O)(Oc2ccc3c(c2)OCO3)Oc2ccc3c(c2)OCO3)O[C@H]1n1ccc(=O)[nH]c1=O [Compound I17] = > 200 µM
18. COc1ccc(Sc2nc(N)nc3c2ncn3CCOCP(=O)(Oc2cccc3c2OCO3)Oc2cccc3c2OCO3)cc1 [Compound I7] = > 200 µM
